- Test system: NCI/ADR-RES ovarian
- protocol summary: NCI tumour cell line growth inhibition, 48 h; in the data active = GI50 below about 0.43 µM; inactive = the rest
Lab note: assign the record to one of active, inactive

# compound, cat
records = [
    ("CN(C)CCC(=O)Nc1ccc(-n2cc(-c3cccc(NC(=S)Nc4cccc(-c5cn(-c6ccc(NC(=O)CCN(C)C)cc6)nn5)c4)c3)nn2)cc1", "inactive"),
    ("COc1cc(/C=N/NC(=O)c2cnn3c2NC(c2ccccc2)C3)ccc1OC1CCCC1 (centres undefined)", "inactive"),
    ("COc1cc2c(cc1OCCNC(=O)/C=C1\\C[C@H]3C=Nc4cc(OCc5ccccc5)c(OC)cc4C(=O)N3C1)N=C[C@@H]1CCCN1C2=O", "inactive"),
]

Field: next compound
Could you please tell me the result logged for `CC(C)C[C@@H](N)[C@@H](O)C(=O)N[C@H](C(=O)N[C@H](C(=O)N[C@@H](CC(=O)O)C(=O)O)C(C)C)C(C)C` in this assay? inactive

###

- System: SNB-75 CNS
- protocol summary: NCI tumour cell line growth inhibition, 48 h
Measured TGI values are reported for all entries that follow.
Numeric only. Scale: µM

Example entries begin here.
# compound, study target, TGI (µM)
data = [
    ("CCC1(c2ccc(N3C(=O)c4cccc5cc([N+](=O)[O-])cc(c45)C3=O)cc2)CCC(=O)NC1=O (centres undefined)", "SNB-75 CNS", 68),
    ("COc1ccc(-n2cc(-c3ccc(OC)c(OC)c3)[nH]c2=O)cc1", "SNB-75 CNS", 99.3),
    ("Cn1c(COC(=O)NCCn2ccnc2)nc2c(N3CCOCC3)nc(-c3ccccc3)nc21", "SNB-75 CNS", 2.15),
]

--- query ---
State its TGI on SNB-75 CNS: `COc1ccc(-n2c(=S)sc3c(Cl)nc(C)nc32)c(OC)c1` 4.26

###

Listing of recorded TGI by entry.
- Test system: SF-268 CNS
- protocol summary: NCI tumour cell line growth inhibition, 48 h

# molecule, study target, TGI
data = [
    ("Cc1c(C)c2c(c(N)c1C#N)C(=O)N(N)C2=O", "SF-268 CNS", "> 100 µM"),
]

What does the data say about its TGI? Entry: Cc1cccc(C2NC(=O)c3ccccc3N2)c1 (centres undefined) > 100 µM

Fill blank: measured TGI of the molecule `Cn1c(COC(=O)NCCc2ccccn2)nc2c(N3CCOCC3)nc(Cl)nc21` is ____. 3.11 µM

I am curious: what TGI value has been reported for CC(C)CCCC(C)[C@H]1CCC(C2C[C@@H](O)[C@@H]3CC(O)[C@@H](O)C[C@]3(CO)C2=O)[C@]1(C)CCO (some centres undefined) ? 54.1 µM

###

- Test system: UACC-257 melanoma
- protocol summary: NCI tumour cell line growth inhibition, 48 h; in the data active = GI50 below about 0.43 µM; inactive = the rest
The reply should name one outcome from active, inactive

# molecule, cat
data = [
    ("O=S(=O)(NC1=NCCN1C(=S)SN1CCn2c1nsc2=S)c1ccc(Cl)cc1", "inactive"),
    ("COc1ccc(-c2ccc(OC)c(OC)c2OC)cc1", "inactive"),
    ("NC(N)=N/N=C\\c1ccc(OCc2ccccc2)cc1", "inactive"),
    ("CCCCCCCC(=O)OCC/C=C/C1OC1C1OC(=O)/C=C\\C=C\\C(=O)N(C(C)=O)C(=O)/C=C(/C)CCC2OC2C1OC(=O)NC(C)=O (stereo not drawn)", "inactive"),
    ("C[C@@H]1C[C@@H]([C@H](O)CC2CC(=O)NC(=O)C2)C(=O)[C@@H](C)C1", "active"),
    ("CC(=O)[CH-]C(C)=O.CC(=O)[CH-]C(C)=O.[O-]c1ccccc1.[O-]c1ccccc1.[Ti+4]", "inactive"),
]

Status in this test for O=c1[nH]c(C2CCCN2)nc2c1oc1ccc(Cl)cc12 (stereo not drawn) ? inactive

Query: recorded result category for `Cn1c(COC(=O)NCCn2ccnc2)nc2c(N3CCOCC3)nc(-c3ccccc3)nc21` in this test inactive

Check the results log: what was the call for `C[C@@]1(F)[C@H](O)[C@@H](CO)O[C@H]1n1ccc(=O)[nH]c1=O` ? inactive

###

// reported TGI per item
- Tested on: A549 NSCLC
- protocol summary: NCI tumour cell line growth inhibition, 48 h

Examples with their reported TGI follow.
# compound, study target, result
rows = [
    ("c1ccc2c(c1)[nH]c1c2nc2ccccn21", "A549 NSCLC", "> 100 µM"),
    ("COc1cc(C2CC(c3ccc(Nc4nc(NCCO)nc(NCCO)n4)cc3)=NN2c2cc(Cl)cc(Cl)c2)cc(OC)c1OC (stereo not given)", "A549 NSCLC", "3.22 µM"),
]

Form field - read-out: TGI; system: A549 NSCLC; submitted item: `Cc1c(C)c2c(c(N)c1C#N)C(=O)N(N)C2=O` > 100 µM

Can you look up TGI on A549 NSCLC for COC1CC(C)(NC(=O)C(F)(F)F)C2OC(c3ccccc3)OCC2O1 (stereo not given) ? > 100 µM

Test system A549 NSCLC; read-out TGI; what value for `O=S(=O)(Nc1nc2ccccc2nc1N1CCCCCC1)c1ccccc1` ? > 100 µM

###

- System: LOX IMVI melanoma
- protocol summary: NCI tumour cell line growth inhibition, 48 h; in the data active = GI50 below about 0.43 µM; inactive = the rest
Give one outcome, nothing more. List: 1 (active), -1 (inactive)

Hey, what did the test say about `Cn1c(I)c(C#C[Si](C)(C)C)c(=O)n(C(=O)c2ccccc2)c1=O` ? -1

What did the test return for `CCC[CH2][Sn-]([CH2]CCC)([CH2]CCC)[O]C(=O)C(C)C` ? 1

So what was the verdict on `COc1ccc(-n2c(=S)sc3c(Cl)nc(C)nc32)c(OC)c1` in this test? -1

I'd appreciate the recorded outcome for `CCCC(=O)O[C@]1(C)CC[C@@H]2[C@H]3[C@@H]1[C@@H]1C[C@@](C)(O)[C@H](OC)CC[C@](C)(OC(=O)[C@@H]2C)[C@H]3O1` from this test. -1

Call for entry `Cn1c(COC(=O)NCCc2ccccn2)nc2c(N3CCOCC3)nc(Cl)nc21` : -1

Which outcome was assigned to `O=C1NC(=NCCc2ccc(Cl)cc2)S/C1=C\c1ccc2ncccc2c1` in this test? -1

###

This listing pairs molecules with measured TGI.
- Tested on: CCRF-CEM leukemia
- protocol summary: NCI tumour cell line growth inhibition, 48 h

These recorded examples may help you get a feel for the data.
# molecule, TGI
rows = [
    ("C=CCC(O[Si](C)(C)C(C)(C)C)c1cc(O[Si](C)(C)C(C)(C)C)ccc1OC (stereo not given)", "> 100 µM"),
    ("CCCCCCCC(=O)OCC/C=C/C1OC1C1OC(=O)/C=C\\C=C\\C(=O)N(C(C)=O)C(=O)/C=C(/C)CCC2OC2C1OC(=O)NC(C)=O (stereo not given)", "> 25 µM"),
    ("O=C1/C(=C/c2ccccc2)Oc2cc(O)ccc21", "> 100 µM"),
]

Reported TGI for `O=c1c(-c2ccc3c(c2)OCO3)coc2c3c(ccc12)OCO3` : what is it? > 100 µM

Which TGI value is on record for `CCOC(=O)NC(=S)N(CC(=O)c1cc(OC)c(OC)c(OC)c1)c1ccc(Cl)cc1` ? > 100 µM

###

List of TGI values.
- Tested on: NCI-H460 lung
- protocol summary: NCI tumour cell line growth inhibition, 48 h
Kindly answer with a numeric value in µM, unit omitted.

Below: 6 compounds and their reported TGI.
# compound, readout, numeric readout
measured = [
    ("NC(N)=N/N=C\\c1ccc(OCc2ccccc2)cc1", "TGI", 3.47),
    ("CN(C)CCC(=O)Nc1ccc(-n2cc(-c3cccc(NC(=S)Nc4cccc(-c5cn(-c6ccc(NC(=O)CCN(C)C)cc6)nn5)c4)c3)nn2)cc1", "TGI", 96.6),
    ("CC(C)(CO[C@H]1C[C@H]2CC[C@@]1(C)C2(C)C)[N+](=O)[O-]", "TGI", 38.5),
    ("Clc1ccc2c(NCCCCCCNc3ccnc4cc(Cl)ccc34)ccnc2c1", "TGI", 6.3),
    ("COC1(CC[C@@H](C)COC2OC(CO)C(O)C(O)C2O)OC2C[C@H]3[C@@H]4CC[C@H]5C[C@@H](OC6OC(CO)C(OC7OC(CO)C(O)C(O)C7O)C(O)C6OC6OC(C)C(O)C(O)C6O)[C@H](O)C[C@]5(C)[C@H]4CC[C@]3(C)C2[C@@H]1C (stereo not given in full)", "TGI", 9.43),
    ("Cn1c(I)c(C#C[Si](C)(C)C)c(=O)n(C(=O)c2ccccc2)c1=O", "TGI", 26.2),
]

If you can, please state the reported TGI value of `Cn1c(COC(=O)NCCc2ccccn2)nc2c(N3CCOCC3)nc(Cl)nc21` . 3.63
